Here's a roundup of IC50 values tested on 11-beta-hydroxysteroid dehydrogenase 1 (Homo sapiens), taken from various published works.
Express it in nM; write the number only.

Prompt: Give 11-beta-hydroxysteroid dehydrogenase 1 (Homo sapiens) IC50 for Cc1ccc(C2C(C)(C)OC(N[C@@H](CCO)c3ccccc3)=NS2(=O)=O)cc1 (stereo partly shown)
Completion: 9

Prompt: Find the measured IC50: item CC1(C)OC(N[C@@H](CCO)c2ccccc2F)=NS(=O)(=O)C1c1ccc(N2CCN(CCC(F)(F)F)CC2)cc1 (single isomer, unassigned) , target or system 11-beta-hydroxysteroid dehydrogenase 1 (Homo sapiens).
Completion: 6

Prompt: Requested read-out IC50, target or system 11-beta-hydroxysteroid dehydrogenase 1 (Homo sapiens), entry CC1(C)OC(N[C@@H](CCO)c2cccc(F)c2Cl)=NS(=O)(=O)C1c1ccc(-c2ccccc2)cc1 (stereo partly shown)
Completion: 10

Prompt: // lookup IC50 | system=11-beta-hydroxysteroid dehydrogenase 1 (Homo sapiens) | key= C[C@H](NC1=NS(=O)(=O)C(c2ccc(-c3ccc4nc(N)sc4c3)cc2)C(C)(C)O1)c1ccccc1F (stereo partly shown)
Completion: 40

Prompt: Notebook: pull reported IC50 for 11-beta-hydroxysteroid dehydrogenase 1 (Homo sapiens), entry CC1(C)[C@H]2CC[C@@H](CNC(=O)CCCOc3ccc(Cl)cc3Cl)[C@@H]1C2
Completion: 271

Prompt: GET /values?readout=IC50&system=11-beta-hydroxysteroid dehydrogenase 1 (Homo sapiens)&item= CC1(C)CC2CC(C)(CN2S(=O)(=O)c2ccc(C(C)(C)O)cc2)C1 (stereo not shown)
Completion: 7

Prompt: Kindly state the measured IC50 obtained for CN1CCN(CCOc2ccc(C3C(C)(C)OC(N[C@@H](CCO)c4ccccc4F)=NS3(=O)=O)cc2)CC1 (stereo partly shown) with 11-beta-hydroxysteroid dehydrogenase 1 (Homo sapiens).
Completion: 70

Prompt: What IC50 appears in the records for this molecule with 11-beta-hydroxysteroid dehydrogenase 1 (Homo sapiens)? O=C(N[C@H]1C2CC3CC1C[C@](O)(C3)C2)N1CCOc2cc(F)ccc21
Completion: 1.1

Prompt: Request: IC50, test system 11-beta-hydroxysteroid dehydrogenase 1 (Homo sapiens), entry COC(=O)NC(C)(C)/C=C/n1ncc(C(=O)N[C@H]2C3CC4CC2C[C@](O)(C4)C3)c1-n1cccn1
Completion: 75.6

Prompt: Param readout = IC50; param system = 11-beta-hydroxysteroid dehydrogenase 1 (Homo sapiens); param query = CC(C)(O)CC1(c2ccccc2)CCN(C(c2ccc(Br)cc2)C2CC2)C(=O)O1 (stereo not shown) ; response: value
Completion: 65

Prompt: API: value(readout= IC50, system= 11-beta-hydroxysteroid dehydrogenase 1 (Homo sapiens), query= CC1(C)CC2CC(C)(CN2S(=O)(=O)c2ccc(C(F)(F)F)cc2)C1 (stereo not shown) )
Completion: 268

Prompt: What value of IC50 on 11-beta-hydroxysteroid dehydrogenase 1 (Homo sapiens) does C[C@H](NC1=NS(=O)(=O)C(c2cccc(C(=O)N3CCOCC3)c2)C(C)(C)O1)c1ccccc1F (stereo partly shown) have?
Completion: 252

Prompt: Give IC50 (11-beta-hydroxysteroid dehydrogenase 1 (Homo sapiens)) of the following molecule: Cn1nccc1S(=O)(=O)NC1(C(=O)NC2C3CC4CC2CC(C(N)=O)(C4)C3)CC1 (stereo not shown)
Completion: 17.3

Prompt: Request - read-out IC50 | tested on 11-beta-hydroxysteroid dehydrogenase 1 (Homo sapiens) | molecule O=C(NC1CCCCC1)c1cccnc1SCCc1ccccc1
Completion: 27

Prompt: Write down the reported IC50 of CC1(C)OC(N[C@@H](CCO)c2ccccc2F)=NS(=O)(=O)C1c1ccc(-c2ccccc2)cc1 (stereo partly shown) , test system: 11-beta-hydroxysteroid dehydrogenase 1 (Homo sapiens).
Completion: 15

Prompt: Lab request: please report IC50 under test system 11-beta-hydroxysteroid dehydrogenase 1 (Homo sapiens) for NC(=O)C12CC3CC(C1)C(NC(=O)C1(NS(=O)(=O)c4ccc(F)cc4)CC1)C(C3)C2 (stereo not shown)
Completion: 6.4

Prompt: # get_value(readout= IC50, system= 11-beta-hydroxysteroid dehydrogenase 1 (Homo sapiens)) for O=S1(=O)N=C(N[C@@H](CCO)c2ccccc2F)OC2(CCCC2)C1c1ccc(-c2ccccc2)cc1 (stereo partly shown)
Completion: 35

Prompt: Under 11-beta-hydroxysteroid dehydrogenase 1 (Homo sapiens): IC50 value of O=C(N[C@H]1C2CC3CC1C[C@](O)(C3)C2)N1CCCc2cccc(F)c21 ?
Completion: 1.1

Prompt: Give recorded IC50 with 11-beta-hydroxysteroid dehydrogenase 1 (Homo sapiens) for the following molecule: CC(C)(C)OC(=O)N1CCCN(S(=O)(=O)c2ccc(C(C)(C)C)cc2)CC1
Completion: 256

Prompt: Enter reported IC50 observed with 11-beta-hydroxysteroid dehydrogenase 1 (Homo sapiens) for C[C@H](NC1=NS(=O)(=O)C(c2ccc(-c3ccnc(C#N)c3)nc2)C(C)(C)O1)c1ccccc1F (stereo partly shown)
Completion: 331

Prompt: Notebook entry, 11-beta-hydroxysteroid dehydrogenase 1 (Homo sapiens) assay: IC50 of CC1(C)OC(N[C@@H](CCO)c2ccccc2F)=NS(=O)(=O)[C@H]1c1ccc(-c2cccc(C(N)=O)c2)cc1 = ?
Completion: 4

---

Recorded pIC50 for compounds tested on 11-beta-hydroxysteroid dehydrogenase 1 (Homo sapiens, UniProt P28845), drawn from a number of studies.
pIC50: −log10 of the molar value.

Prompt: Item: CN1C(=O)C2(CCN(C(=O)/C=C/c3ccccc3C(F)(F)F)CC2)c2cc(C(N)=O)ccc21 Test system: 11-beta-hydroxysteroid dehydrogenase 1 (Homo sapiens, UniProt P28845) Read-out: pIC50 Value: ?
Completion: 6.00 to 7.00

Prompt: Give 11-beta-hydroxysteroid dehydrogenase 1 (Homo sapiens, UniProt P28845) pIC50 for CC(C)COc1c(C(=O)NC2C3CC4CC2CC(O)(C4)C3)cnn1C=CC(C)(C)NC(=O)COCc1ccccc1 (centres unmarked)
Completion: 9.21

Prompt: Return pIC50 measured with 11-beta-hydroxysteroid dehydrogenase 1 (Homo sapiens, UniProt P28845) given this compound: C[C@H](N1CC[C@](CCCO)(c2ccc(F)cc2)OC1=O)C(C)(C)C
Completion: > 7.00

Prompt: Please state recorded pIC50 (tested on 11-beta-hydroxysteroid dehydrogenase 1 (Homo sapiens, UniProt P28845)) of O=C(CCCOc1ccccc1)NC12CC3CC(CC(CO)(C3)C1)C2
Completion: 8.05

Prompt: Enter reported pIC50 observed with 11-beta-hydroxysteroid dehydrogenase 1 (Homo sapiens, UniProt P28845) for O=C(c1cc2ncc(Br)cn2n1)N1CCc2ncsc2CC1
Completion: < 5.00

Prompt: pIC50 of O=C1N=C(Nc2ccccc2Cl)SC1C1CCCC1 (centres unmarked) on 11-beta-hydroxysteroid dehydrogenase 1 (Homo sapiens, UniProt P28845)?
Completion: > 7.70

Prompt: For the record C[C@H](NC1=NS(=O)(=O)C(C)(c2ccc(-c3ccccc3)cc2)C(C)(C)O1)c1ccccc1F (some centres unmarked) , what value of pIC50 is listed for 11-beta-hydroxysteroid dehydrogenase 1 (Homo sapiens, UniProt P28845)?
Completion: 7.55

Prompt: What pIC50 appears in the records for this compound with 11-beta-hydroxysteroid dehydrogenase 1 (Homo sapiens, UniProt P28845)? O=C(O)CC1CC2(CCN(C(=O)NCc3ccccc3N3CCCC3)CC2)c2c(Br)cccc21 (centres unmarked)
Completion: 6.00 to 7.00

---

# IC50 against 11-beta-hydroxysteroid dehydrogenase 1 (Homo sapiens, UniProt P28845), merged from multiple literature sources
hey, just use T if measured IC50 is less than 0.01 µM, otherwise F

Prompt: IC50 under 0.01 µM? Item: Cc1n[nH]cc1-c1ccc(C2C(C)(C)OC(N[C@@H](CCO)c3ccccc3F)=NS2(=O)=O)cc1 (stereo partly shown)
Completion: T

Prompt: Determine whether this compound shows IC50 lower than 0.01 µM (ties excluded): NC(=O)C12CC3CC(C1)C(NC(=O)C1(CNS(=O)(=O)c4cc(Cl)cc(Cl)c4)CC1)C(C3)C2 (stereo not shown)
Completion: F

Prompt: Check if IC50 falls below 0.01 µM for C[C@H](NC1=NS(=O)(=O)C(C)(c2cccc(N3CCN(S(C)(=O)=O)CC3)c2)C(C)(C)O1)c1ccccc1F (stereo partly shown) .
Completion: F

Prompt: # TODO verify IC50 < 0.01 µM strictly for this compound: C[C@H](NC1=NS(=O)(=O)[C@@H](c2ccc(-c3cncc(C(N)=O)c3)cc2)C(C)(C)O1)c1ccccc1F
Completion: F

Prompt: Check if IC50 falls below 0.01 µM for COc1ccc(S(=O)(=O)N2CC=C(c3ccccc3)CCC2)cc1 .
Completion: F

Prompt: Regarding CC1(C)OC(N[C@@H](CCO)c2ccccc2F)=NS(=O)(=O)C1c1ccc(-c2cn[nH]c2)cc1 (stereo partly shown) , kindly confirm whether its IC50 is beneath 0.01 µM.
Completion: T

Prompt: Please determine if CC(C)(CCOc1ccc(Cl)cc1Cl)C(=O)NC1C2CC3CC1CC(O)(C3)C2 (stereo not shown) is below 0.01 µM in terms of IC50.
Completion: T

Prompt: Given the entry COc1cc(-c2nnc(C34CC5CC(CC(C5)C3)C4)n2C)cc(OC)c1OC , would its reported IC50 be below 0.01 µM?
Completion: T

Prompt: For CC1(C)OC(N[C@@H](CCO)c2ccccc2)=NS(=O)(=O)C1c1ccc(-c2ccccc2)cc1 (stereo partly shown) , is the recorded IC50 below the cut-off of 0.01 µM?
Completion: F

Prompt: Record Cc1cc(S(=O)(=O)NCC2(C(=O)NC3C4CC5CC3CC(C(N)=O)(C5)C4)CC2)c(Cl)cc1Cl (stereo not shown) : is its IC50 strictly below 0.01 µM?
Completion: F

Prompt: Criterion: IC50 strictly below 0.01 µM. Is it met by C[C@H](NC1=NS(=O)(=O)C(c2cccc(-c3ccccc3)c2)C(C)(C)O1)c1ccccc1F (stereo partly shown) ?
Completion: F
